FYI, the data here is from paper PMC8152350.

Assay: in vitro
Type: cell-based, mouse
Conditions: mouse, NIH/3T3, 24 h, mean ± SD, n = 3; read-out: CC50 betulin SRB 24 h
Assay metric: CC50 (µg/mL)
Answer format: numeric, µg/mL implied, no suffix.

Q) What CC50 value was documented for this molecule, `C=C(C)[C@@H]1CC[C@]2(CO)CC[C@]3(C)[C@H](CC[C@@H]4[C@@]5(C)CC[C@H](O)C(C)(C)[C@@H]5CC[C@]43C)[C@@H]12` ?
A) 10.9

----------
Assay: MTT assay (mitochondrial activity), fish fibroblasts
Type: cell-based, bluegill
Details: bluegill, BF-2 caudal trunk fibroblasts; BF-2, 72 h, mean ± SD, n = 3; read-out: CC50 betulin MTT 72 h
Protocol: BF-2 (ATCC CCL-91) bluegill caudal trunk fibroblasts were grown in minimum essential medium (Eagle, EBSS) supplemented with 1 % nonessential amino acids (NEAAs), 10 % foetal bovine serum and 1 % antibiotic-antimycotic solution at 23 °C in a humidified atmosphere with 5 % CO2. All experiments were repeated three times.
Assay metric: CC50 at 72 h (µg/mL)
Answer format: numeric, µg/mL implied, no suffix.

Q) What CC50 at 72 h value was documented for this molecule, `C=C(C)[C@@H]1CC[C@]2(CO)CC[C@]3(C)[C@H](CC[C@@H]4[C@@]5(C)CC[C@H](O)C(C)(C)[C@@H]5CC[C@]43C)[C@@H]12` ?
A) 3.02

----------
Test: MTT assay (mitochondrial activity), murine fibroblasts
Settings: mouse
Assay metric: CC50 at 48 h (µg/mL)
Answer format: numeric, µg/mL implied, no suffix.

Q) What CC50 at 48 h value was documented for this compound, `C=C(C)[C@@H]1CC[C@]2(CO)CC[C@]3(C)[C@H](CC[C@@H]4[C@@]5(C)CC[C@H](O)C(C)(C)[C@@H]5CC[C@]43C)[C@@H]12` ?
A) 1.58

----------
Experiment: NRU assay (lysosomal membrane integrity), fish fibroblasts
Format: cell-based, bluegill
Details: bluegill, BF-2 caudal trunk fibroblasts; BF-2, 72 h, mean ± SD, n = 3; read-out: CC50 betulin NRU 72 h
Assay metric: CC50 at 72 h (µg/mL)
Answer format: numeric, µg/mL implied, no suffix.

Q) What CC50 at 72 h value was documented for this molecule, `C=C(C)[C@@H]1CC[C@]2(CO)CC[C@]3(C)[C@H](CC[C@@H]4[C@@]5(C)CC[C@H](O)C(C)(C)[C@@H]5CC[C@]43C)[C@@H]12` ?
A) 14.5

----------
Assay: SRB assay (total cellular protein content), fish fibroblasts
Assay type: cell-based, bluegill
Conditions: bluegill, BF-2 caudal trunk fibroblasts; BF-2, 72 h, n = 3; read-out: CC50 betulin SRB 72 h
Description: BF-2 (ATCC CCL-91) bluegill caudal trunk fibroblasts were grown in minimum essential medium (Eagle, EBSS) supplemented with 1 % nonessential amino acids (NEAAs), 10 % foetal bovine serum and 1 % antibiotic-antimycotic solution at 23 °C in a humidified atmosphere with 5 % CO2. All experiments were repeated three times. The sulforhodamine B colorimetric assay measures the cellular protein content, and the assay results are proportional to the number of cells. […]
Assay metric: CC50 at 72 h

Q) What CC50 at 72 h value was documented for this molecule, `C=C(C)[C@@H]1CC[C@]2(CO)CC[C@]3(C)[C@H](CC[C@@H]4[C@@]5(C)CC[C@H](O)C(C)(C)[C@@H]5CC[C@]43C)[C@@H]12` ?
A) > 31.2 µg/mL
